# Test context: 333.15 K; 101.33 kPa; Liquid; Concentric cylinders viscometry
Endpoint name: viscosity (mPa·s)
Write down the numeric answer in mPa·s and omit the unit.

I would be grateful if you could share the reported viscosity for CCCCn1cc[n+](C)c1.O=S(=O)([O-])C(F)(F)F [1-butyl-3-methylimidazolium trifluoromethanesulfonate] .
23

Same question for CCCCn1cc[n+](C)c1.COS(=O)(=O)[O-] [1-butyl-3-methylimidazolium methyl sulfate] please.
43.6

Same question for CCn1cc[n+](C)c1.COS(=O)(=O)[O-] [1-ethyl-3-methylimidazolium methylsulfate] please.
21.2

Same question for CCn1cc[n+](C)c1.O=S(=O)([O-])C(F)(F)F [1-ethyl-3-methylimidazolium trifluoromethanesulfonate] please.
15.5
